- TARGET_OR_SYSTEM: T1, recombinant human IL-6 (human, UniProt P05231 30-212)
- T1 construct: Bought protein
- T1 sequence (P05231 30-212 limits assumed): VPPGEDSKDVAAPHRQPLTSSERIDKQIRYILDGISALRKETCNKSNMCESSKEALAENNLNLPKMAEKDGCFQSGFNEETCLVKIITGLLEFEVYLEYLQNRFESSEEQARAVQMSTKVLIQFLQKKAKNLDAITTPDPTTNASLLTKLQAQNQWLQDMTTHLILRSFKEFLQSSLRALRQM
- TEST_PROTOCOL: SPR Biacore, purified Ab on Protein A chip, IL-6 analyte, 37 C
This listing pairs binders with measured Kd.
Only the number, expressed in nM, is required.

Below are worked cases with known answers.
>  <BINDER>
anti-IL-6 antibody, light chain M88A (heavy chain WT) (antibody, V domains shown, See note of m2; also called WT / M88A) VH: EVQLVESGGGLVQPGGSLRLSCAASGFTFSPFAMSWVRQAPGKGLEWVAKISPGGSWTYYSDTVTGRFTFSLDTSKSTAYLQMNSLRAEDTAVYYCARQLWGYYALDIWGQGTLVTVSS VL: DIQLTQSPSSLSASVGDRVTITCSASISVSYMYWYQQKPGKAPKLLIYDMSNLASGVPSRFSGSGSGTDFTLTISSLQPEDFATYYCAQWSGYPYTFGQGTKVEIK

>  <REPORTED_PROPERTY>
Kd

>  <MEASURED_NUMBER>
2.25

$$$$
>  <BINDER>
anti-IL-6 antibody, light chain T96L (heavy chain WT) (antibody, V domains shown, See note of m2; also called WT / T96L) VH: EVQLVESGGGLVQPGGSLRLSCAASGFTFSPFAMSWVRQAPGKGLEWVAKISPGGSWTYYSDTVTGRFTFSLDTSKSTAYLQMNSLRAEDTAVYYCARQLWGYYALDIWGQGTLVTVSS VL: DIQLTQSPSSLSASVGDRVTITCSASISVSYMYWYQQKPGKAPKLLIYDMSNLASGVPSRFSGSGSGTDFTLTISSLQPEDFATYYCMQWSGYPYLFGQGTKVEIK

>  <REPORTED_PROPERTY>
Kd

>  <MEASURED_NUMBER>
0.901

$$$$

Let's switch to this binder now.
get_value(item= anti-IL-6 antibody, heavy chain variant II (M34W, G66D, I108V) / light chain variant IV (M32L, M50A, N52S, M88Q) (antibody, V domains shown, See note of m39; also called M34W, G66D, I108V/ M32L, M50A, N52S, M88Q; II/IV) VH: EVQLVESGGGLVQPGGSLRLSCAASGFTFSPFAWSWVRQAPGKGLEWVAKISPGGSWTYYSDTVTDRFTFSLDTSKSTAYLQMNSLRAEDTAVYYCARQLWGYYALDVWGQGTLVTVSS VL: DIQLTQSPSSLSASVGDRVTITCSASISVSYLYWYQQKPGKAPKLLIYDASSLASGVPSRFSGSGSGTDFTLTISSLQPEDFATYYCQQWSGYPYTFGQGTKVEIK , readout=Kd) returns 0.615
